- System Under Test: Porcine pancreatic phospholipase A₂, [ε-Mal-Lys¹¹⁶]-AMPA (Sus scrofa)
- Construct: Conversion of pro-PLA (i.e. Prec) into [ε-Acyl-Lys¹¹⁶]-AMPA; from tissue; host or cells: pig pancreas; chemically amidinated and maleylated at Lys116
- Sequence (P00592 23-146): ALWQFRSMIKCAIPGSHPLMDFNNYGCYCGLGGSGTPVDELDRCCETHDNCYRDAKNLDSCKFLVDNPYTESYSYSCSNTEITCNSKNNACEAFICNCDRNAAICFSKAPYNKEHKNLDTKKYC
- Protocol Text: Binding to micellar cis-9-octadecenyl phosphocholine by UV absorption difference spectroscopy
- Condition Summary: micellar ligand, N = number of lipid monomers per molecule of enzyme, KD = micellar dissociation constant, read-out: N.KD apparent dissociation constant
Measurement Label: Kd (µM)

>>> result("CCCCCCCC/C=C\\CCCCCCCCOP(=O)([O-])OCC[N+](C)(C)C [cis-9-octadecenylphosphocholine]")
43
